Tested on: E. coli ATCC 25922
ASSAY PROCEDURE: MIC, broth macrodilution (CLSI), E. coli ATCC 25922
Assay type: cell-based
RECORDED METRIC: Minimal Inhibitory Concentration (MIC) (µg/mL)
I only need the number, in µg/mL, no unit after it.

Query: Give E. coli ATCC 25922 Minimal Inhibitory Concentration (MIC) for CCCCCCNC(=O)OCC1OC(OC2C(OC(=O)NCCCCCC)C(N)CC(N)C2OC2OC(CN)C(OC(=O)NCCCCCC)C(OC(=O)NCCCCCC)C2N)C(OC(=O)NCCCCCC)C1OC1OC(CN)C(OC(=O)NCCCCCC)C(OC(=O)NCCCCCC)C1N.O=C(O)C(F)(F)F.O=C(O)C(F)(F)F.O=C(O)C(F)(F)F.O=C(O)C(F)(F)F.O=C(O)C(F)(F)F.O=C(O)C(F)(F)F (stereo not drawn)
Reply: 8

Query: Give E. coli ATCC 25922 Minimal Inhibitory Concentration (MIC) for CC(C)(C)c1ccc(COCC2OC(OC3C(OCc4ccc(C(C)(C)C)cc4)C(N)CC(N)C3OC3OC(CN)C(OCc4ccc(C(C)(C)C)cc4)C(OCc4ccc(C(C)(C)C)cc4)C3N)C(OCc3ccc(C(C)(C)C)cc3)C2OC2OC(CN)C(OCc3ccc(C(C)(C)C)cc3)C(OCc3ccc(C(C)(C)C)cc3)C2N)cc1.O=C(O)C(F)(F)F.O=C(O)C(F)(F)F.O=C(O)C(F)(F)F.O=C(O)C(F)(F)F.O=C(O)C(F)(F)F.O=C(O)C(F)(F)F (stereo not drawn)
Reply: 128

Query: Give E. coli ATCC 25922 Minimal Inhibitory Concentration (MIC) for CCCCCCNC(=O)OCC1OC(OC2C(NC(=O)C(CCN)OC(=O)NCCCCCC)CC(N)C(OC3OC(CN)C(OC(=O)NCCCCCC)C(OC(=O)NCCCCCC)C3OC(=O)NCCCCCC)C2OC(=O)NCCCCCC)C(OC(=O)NCCCCCC)C(N)C1OC(=O)NCCCCCC.O=C(O)C(F)(F)F.O=C(O)C(F)(F)F.O=C(O)C(F)(F)F.O=C(O)C(F)(F)F (stereo not drawn)
Reply: 4

Query: Give E. coli ATCC 25922 Minimal Inhibitory Concentration (MIC) for NCCC(OCc1ccccc1)C(=O)NC1CC(N)C(OC2OC(CN)C(OCc3ccccc3)C(OCc3ccccc3)C2OCc2ccccc2)C(OCc2ccccc2)C1OC1OC(COCc2ccccc2)C(OCc2ccccc2)C(N)C1OCc1ccccc1.O=C(O)C(F)(F)F.O=C(O)C(F)(F)F.O=C(O)C(F)(F)F.O=C(O)C(F)(F)F (stereo not drawn)
Reply: 16

Query: Give E. coli ATCC 25922 Minimal Inhibitory Concentration (MIC) for CCCCCCNC(=O)OCC1OC(OC2C(N)CC(N)C(OC3OC(CN)C(OC(=O)NCCCCCC)C(OC(=O)NCCCCCC)C3OC(=O)NCCCCCC)C2OC(=O)NCCCCCC)C(OC(=O)NCCCCCC)C(N)C1OC(=O)NCCCCCC.O=C(O)C(F)(F)F.O=C(O)C(F)(F)F.O=C(O)C(F)(F)F.O=C(O)C(F)(F)F (stereo not drawn)
Reply: 128

Query: Give E. coli ATCC 25922 Minimal Inhibitory Concentration (MIC) for NCC1OC(OC2C(N)CC(N)C(OCc3ccc(Cl)cc3)C2OC2OC(COCc3ccc(Cl)cc3)C(OC3OC(CN)C(OCc4ccc(Cl)cc4)C(OCc4ccc(Cl)cc4)C3N)C2OCc2ccc(Cl)cc2)C(N)C(OCc2ccc(Cl)cc2)C1OCc1ccc(Cl)cc1.O=C(O)C(F)(F)F.O=C(O)C(F)(F)F.O=C(O)C(F)(F)F.O=C(O)C(F)(F)F.O=C(O)C(F)(F)F.O=C(O)C(F)(F)F (stereo not drawn)
Reply: 128
